# measurement.notes: self-splicing fitness, log relative to wild type (ln ratio); higher = more splicing; Tetrahymena group I intron in knt gene, E. coli kanamycin selection, DiMSum; sequences stand for … in CUCUCU…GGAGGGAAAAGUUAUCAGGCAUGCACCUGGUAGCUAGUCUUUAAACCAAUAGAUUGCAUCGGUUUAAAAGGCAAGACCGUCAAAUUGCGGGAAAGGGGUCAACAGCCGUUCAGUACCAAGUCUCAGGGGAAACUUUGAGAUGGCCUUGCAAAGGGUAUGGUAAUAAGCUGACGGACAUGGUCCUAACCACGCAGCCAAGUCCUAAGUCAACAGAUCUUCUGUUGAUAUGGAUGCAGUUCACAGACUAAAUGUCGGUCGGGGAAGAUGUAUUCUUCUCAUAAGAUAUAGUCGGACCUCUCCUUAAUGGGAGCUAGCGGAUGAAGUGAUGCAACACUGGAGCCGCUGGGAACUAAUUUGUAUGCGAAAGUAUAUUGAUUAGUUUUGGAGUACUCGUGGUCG;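 further: selection with 25 µg/mL kanamycin versus none on LB agar overnight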
# test.conditions: 30 °C
quantity.measured: self-splicing fitness (ln)
One number for each entry.

AGUGAGCAAUAUUACGAGAG = -2.1

List the reported self-splicing fitness (ln) of each sequence below.
1. GUUCAGCAAUAUUACGUGCA
2. CCGAAGCAAUAUUACGCCUU
3. AUUCAGCAAUAUUACGUGCG
4. UAGUAGCAAUAUUACGAUAA
5. AACAAGCAAUAUUACGCCAU

1. -0.645
2. -3.35
3. -0.448
4. -3.02
5. -2.66

For each entry beneath this line, provide reported self-splicing fitness (ln).
1. UUUGAGCAAUAUUACGUUUA
2. UCACAGCAAUAUUACGAACG

1: -3.32; 2: -1.61

Hi there! I need self-splicing fitness (ln) for each item below, if you can.
1. GGCGAGCAAUAUUACGAUCU
2. GAGCAGCAAUAUUACGUUGU
3. UUCCAGCAAUAUUACGAAUC
4. CCAUAGCAAUAUUACGGAUU
5. AGGUAGCAAUAUUACGUUAA
6. AUUAAGCAAUAUUACGCACU

-0.834
-3.37
-4.37
-3.49
-2.88
-0.21

Please go through the list and note self-splicing fitness (ln) for each sequence.
1. AUAAAGCAAUAUUACGAGUG
2. AAGGAGCAAUAUUACGCCUA

1. -2.03
2. -1.21
